B1: Azoarcus group I ribozyme (parent)
chain: GUGCCUUGCGCCGGGAAACCACGCAAGGGAUGGUGUCAAAUUCGGCGAAACCUAAGCGCCCGCCCGGGCGUAUGGCAACGCCGAGCCAAGCUUCGGCGCCUGCGCCGAUGAAGGUGUAGAGACUAGACGGCACCCACCUAAGGCAAACGCUAUGGUGAAGGCAUAGUCCAGGGAGUGGCGAAAGUCACACAAACCGG

- Variants of: B1
- PROTOCOL_DESCRIPTION: reverse-splicing fitness (ratio to wild type); higher = more active; in vitro selection; Mg2+ level not given
PARAMETER_MEASURED: reverse-splicing fitness
Give bare numbers.

These recorded examples may help you get a feel for the data.
{"columns": ["RESIDUE_CHANGE", "reverse-splicing fitness"],
 "data": [
  ["C82A A120U A145U C150U C169G", 0.00375],
  ["A111C A120G C150U C169G U176A", 0.0233],
  ["A111G A145U C150U C169A U176A", 0.0142]
]}

Provide each entry's reverse-splicing fitness from the list below.
1. C82U A120C A145C C150U C169G
2. C82G A111G A120U A145C C150G U176A
3. C82G A145G C169U
4. A111C A120G A145C C150G C169A U176G
5. A111C A120U A145G C169A U176A
6. A145U C169U

Response given:
1: 0.00596; 2: 0.00327; 3: 0.0164; 4: 0.0045; 5: 0.00375; 6: 0.407

These data points were gathered from the RNAGym collection of RNA variant scans (doi:10.1093/molbev/msab373).
